# Target: JAK3 (Homo sapiens, UniProt P52333)
# Construct: purchased Invitrogen
# Sequence (P52333 whole entry): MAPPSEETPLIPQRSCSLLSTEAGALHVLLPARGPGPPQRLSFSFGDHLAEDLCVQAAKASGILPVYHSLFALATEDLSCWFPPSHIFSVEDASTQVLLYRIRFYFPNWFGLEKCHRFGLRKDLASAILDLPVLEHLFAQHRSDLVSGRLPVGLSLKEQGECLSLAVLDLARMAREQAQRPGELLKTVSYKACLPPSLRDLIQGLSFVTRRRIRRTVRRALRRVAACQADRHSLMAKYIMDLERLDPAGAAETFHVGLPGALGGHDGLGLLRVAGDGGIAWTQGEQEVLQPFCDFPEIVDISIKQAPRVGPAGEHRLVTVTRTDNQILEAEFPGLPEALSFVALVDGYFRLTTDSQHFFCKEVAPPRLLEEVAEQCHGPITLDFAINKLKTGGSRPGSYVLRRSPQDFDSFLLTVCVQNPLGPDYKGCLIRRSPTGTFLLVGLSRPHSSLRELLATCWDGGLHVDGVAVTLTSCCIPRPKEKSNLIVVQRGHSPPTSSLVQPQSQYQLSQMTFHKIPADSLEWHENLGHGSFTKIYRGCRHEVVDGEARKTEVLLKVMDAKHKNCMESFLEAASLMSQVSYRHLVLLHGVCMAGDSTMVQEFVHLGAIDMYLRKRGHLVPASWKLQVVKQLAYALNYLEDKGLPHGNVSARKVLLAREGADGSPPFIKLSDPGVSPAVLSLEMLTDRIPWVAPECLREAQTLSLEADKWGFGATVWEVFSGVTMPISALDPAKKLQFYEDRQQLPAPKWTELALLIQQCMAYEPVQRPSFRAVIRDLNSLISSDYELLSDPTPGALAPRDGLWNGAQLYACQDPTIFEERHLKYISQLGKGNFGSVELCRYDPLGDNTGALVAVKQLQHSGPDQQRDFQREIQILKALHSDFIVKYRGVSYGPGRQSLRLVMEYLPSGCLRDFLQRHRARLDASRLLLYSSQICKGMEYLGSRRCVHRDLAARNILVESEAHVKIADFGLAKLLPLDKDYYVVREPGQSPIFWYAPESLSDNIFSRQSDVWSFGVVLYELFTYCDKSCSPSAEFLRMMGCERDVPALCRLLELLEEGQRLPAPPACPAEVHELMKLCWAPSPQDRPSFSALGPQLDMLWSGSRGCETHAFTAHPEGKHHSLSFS
# Assay comment: JAK3 enzyme inhibition test (LANCE method)
# Assay type: biochemical
# Condition info: 1 μM test compound; read-out: JAK3 enzyme inhibitory activity (%, 1 μM)
Below: a set of entries, each annotated with reported inhibition at 1 µM.
Endpoint label: inhibition at 1 µM (%)

compound="CC(C)[C@H](C)n1cc(-c2cc(N3CC[C@@H](O)C3)n(C)n2)c2[nH]nc(N)c2c1=O [Example 21]" endpoint_label="inhibition at 1 µM" value_unit=% numeric_value=99
compound="CN(C)[C@H]1CCN(c2cc(-c3cn(C(C4CC4)C4CC4)c(=O)c4c(N)n[nH]c34)nn2C)C1 [Example 160]" endpoint_label="inhibition at 1 µM" value_unit=% numeric_value=100
compound="CN1CCN(c2cc(-c3cn(-c4c(F)cccc4C#N)c(=O)c4c(N)n[nH]c34)nn2C)CC1 [Example 70]" endpoint_label="inhibition at 1 µM" value_unit=% numeric_value=99
compound="C[C@H](C1CC1)n1cc(-c2cc(N3CCC(C)(O)CC3)n(C)n2)c2[nH]nc(N)c2c1=O [Example 133]" endpoint_label="inhibition at 1 µM" value_unit=% numeric_value=96

====

// values below are reported inhibition at 1 µM
# Target: JAK1 (Homo sapiens, UniProt P23458)
# Construct: purchased Invitrogen
# Sequence (P23458 whole entry): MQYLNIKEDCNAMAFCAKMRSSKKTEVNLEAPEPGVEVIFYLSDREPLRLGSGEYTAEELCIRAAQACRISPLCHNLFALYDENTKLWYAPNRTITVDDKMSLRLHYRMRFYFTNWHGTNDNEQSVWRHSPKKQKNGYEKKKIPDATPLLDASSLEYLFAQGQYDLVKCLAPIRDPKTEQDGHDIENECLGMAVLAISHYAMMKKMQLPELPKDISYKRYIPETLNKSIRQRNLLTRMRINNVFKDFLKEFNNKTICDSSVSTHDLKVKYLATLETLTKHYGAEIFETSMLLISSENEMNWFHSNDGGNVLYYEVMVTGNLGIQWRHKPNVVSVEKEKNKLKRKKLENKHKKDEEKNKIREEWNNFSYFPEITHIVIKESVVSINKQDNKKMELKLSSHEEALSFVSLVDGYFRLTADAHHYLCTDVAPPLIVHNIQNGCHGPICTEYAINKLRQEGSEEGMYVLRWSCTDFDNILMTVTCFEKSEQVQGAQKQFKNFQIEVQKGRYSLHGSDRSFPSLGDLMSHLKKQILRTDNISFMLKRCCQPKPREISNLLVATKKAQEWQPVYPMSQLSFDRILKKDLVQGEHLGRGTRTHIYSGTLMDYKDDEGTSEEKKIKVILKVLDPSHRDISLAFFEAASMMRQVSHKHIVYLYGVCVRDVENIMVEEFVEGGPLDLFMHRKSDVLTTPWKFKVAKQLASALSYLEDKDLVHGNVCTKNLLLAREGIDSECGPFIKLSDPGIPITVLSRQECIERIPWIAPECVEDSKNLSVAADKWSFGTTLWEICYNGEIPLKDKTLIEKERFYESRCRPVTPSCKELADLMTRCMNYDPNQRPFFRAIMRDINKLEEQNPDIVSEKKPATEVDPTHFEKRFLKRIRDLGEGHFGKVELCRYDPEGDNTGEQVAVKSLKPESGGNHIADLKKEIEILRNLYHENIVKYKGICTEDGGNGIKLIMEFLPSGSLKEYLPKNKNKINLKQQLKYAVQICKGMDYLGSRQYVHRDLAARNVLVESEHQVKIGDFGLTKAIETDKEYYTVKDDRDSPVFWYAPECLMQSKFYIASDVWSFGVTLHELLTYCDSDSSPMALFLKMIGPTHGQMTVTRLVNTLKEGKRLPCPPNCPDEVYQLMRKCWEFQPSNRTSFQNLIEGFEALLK
# Assay comment: JAK1 enzyme inhibition test (LANCE method)
# Type: biochemical
# Condition info: 1 μM test compound; read-out: JAK1 enzyme inhibitory activity (%, 1 μM)
Endpoint label: inhibition at 1 µM (%)

compound_structure_string=C[C@H](C1CC1)n1cc(-c2cc(C(C)(C)O)n(C)n2)c2[nH]nc(N)c2c1=O target="JAK1 (Homo sapiens, UniProt P23458)" numeric_value=96
compound_structure_string=COC1(c2cc(-c3cn(-c4c(F)cccc4F)c(=O)c4c(N)n[nH]c34)nn2C)CN(S(=O)(=O)C(C)C)C1 target="JAK1 (Homo sapiens, UniProt P23458)" numeric_value=92
compound_structure_string=Cc1cc(-c2cn(C(C3CC3)C3CC3)c(=O)c3c(N)n[nH]c23)nn1C target="JAK1 (Homo sapiens, UniProt P23458)" numeric_value=98
compound_structure_string=CC(C)[C@H](C)n1cc(-c2cc(N3CCCC3)n(C)n2)c2[nH]nc(N)c2c1=O target="JAK1 (Homo sapiens, UniProt P23458)" numeric_value=98

====

# Target: TYK2 (Homo sapiens, UniProt P29597)
# Construct: purchased Invitrogen
# Sequence (P29597 whole entry): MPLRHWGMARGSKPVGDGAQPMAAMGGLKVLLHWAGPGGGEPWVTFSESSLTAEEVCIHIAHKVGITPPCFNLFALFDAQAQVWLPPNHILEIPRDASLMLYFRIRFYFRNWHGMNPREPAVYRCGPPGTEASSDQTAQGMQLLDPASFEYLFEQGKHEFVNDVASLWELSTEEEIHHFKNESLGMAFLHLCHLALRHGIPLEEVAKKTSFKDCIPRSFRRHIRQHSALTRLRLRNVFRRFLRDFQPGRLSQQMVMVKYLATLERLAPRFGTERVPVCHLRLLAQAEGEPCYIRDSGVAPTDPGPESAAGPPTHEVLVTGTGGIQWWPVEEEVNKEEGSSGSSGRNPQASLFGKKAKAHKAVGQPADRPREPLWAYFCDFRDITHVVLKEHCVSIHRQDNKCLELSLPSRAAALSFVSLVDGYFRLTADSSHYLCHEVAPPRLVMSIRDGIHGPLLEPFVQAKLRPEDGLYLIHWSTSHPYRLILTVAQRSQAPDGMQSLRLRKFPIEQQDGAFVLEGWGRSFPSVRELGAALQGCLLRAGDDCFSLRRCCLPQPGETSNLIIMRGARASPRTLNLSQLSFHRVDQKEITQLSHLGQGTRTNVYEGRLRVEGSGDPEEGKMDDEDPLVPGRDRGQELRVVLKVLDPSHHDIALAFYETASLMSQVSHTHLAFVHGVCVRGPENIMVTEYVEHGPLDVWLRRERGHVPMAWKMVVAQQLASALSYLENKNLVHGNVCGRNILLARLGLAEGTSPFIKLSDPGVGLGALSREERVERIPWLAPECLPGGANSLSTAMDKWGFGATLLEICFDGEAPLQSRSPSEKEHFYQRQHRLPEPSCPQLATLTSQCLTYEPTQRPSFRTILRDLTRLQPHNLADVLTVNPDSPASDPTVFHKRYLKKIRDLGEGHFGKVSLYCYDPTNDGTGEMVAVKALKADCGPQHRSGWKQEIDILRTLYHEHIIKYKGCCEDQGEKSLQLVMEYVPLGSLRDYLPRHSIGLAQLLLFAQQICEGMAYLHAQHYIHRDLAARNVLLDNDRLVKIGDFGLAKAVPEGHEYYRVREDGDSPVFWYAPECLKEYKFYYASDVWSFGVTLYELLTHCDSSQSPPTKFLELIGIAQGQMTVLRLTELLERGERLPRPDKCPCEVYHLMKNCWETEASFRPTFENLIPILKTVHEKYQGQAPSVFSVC
# Assay comment: TYK2 enzyme inhibition test (LANCE method)
# Assay type: biochemical
# Condition info: 1 μM test compound; read-out: TYK2 enzyme inhibitory activity (%, 1 μM)
inhibition at 1 µM values for the compounds below.
Endpoint label: inhibition at 1 µM (%)

compound="CC(C)C(C#N)n1cc(-c2cc(N3CCOCC3)n(C)n2)c2[nH]nc(N)c2c1=O (centres unmarked) [Example 113]" numeric_value=99
compound="Cn1nc(-c2cn(-c3c(F)cccc3C#N)c(=O)c3c(N)n[nH]c23)cc1C(C)(C)O [Example 71]" numeric_value=99
compound="CC(C)[C@H](C)n1cc(-c2cc(C(F)(F)F)n(C)n2)c2[nH]nc(N)c2c1=O [Example 42]" numeric_value=98
compound="CC(C1CC1)n1cc(-c2cc(CN3CCS(=O)(=O)CC3)n(C)n2)c2[nH]nc(N)c2c1=O (centres unmarked) [Example 9]" numeric_value=99
compound="CCn1nc(-c2cn([C@@H](C)C(C)C)c(=O)c3c(N)n[nH]c23)cc1N1CCS(=O)(=O)CC1 [Example 28]" numeric_value=98
compound="CC(C)[C@H](C)n1cc(-c2cc(N3CC[C@@H](O)C3)n(C)n2)c2[nH]nc(N)c2c1=O [Example 21]" numeric_value=99
compound="C[C@@H](C1CC1)n1cc(-c2cc(N3CCOCC3)n(C)n2)c2[nH]nc(N)c2c1=O [Example 5]" numeric_value=100
compound="CN(C)[C@H]1CCN(c2cc(-c3cn(C(C4CC4)C4CC4)c(=O)c4c(N)n[nH]c34)nn2C)C1 [Example 160]" numeric_value=100

Hello, the source for this data is patent US9637483B2, in case you need it.
